The reported numbers originate from patent EP0306300B1.

# IC50 values compiled below
Test: Cytochrome P-450 inhibition (ethoxycoumarin-O-deethylase activity, phenobarbital-induced microsomes)
Conditions: rat, microsomes
Write it as a number; the unit nM goes unstated.

Fc1ccc(-c2nc3n(c2-c2ccncc2)CCS3)cc1: 900

Could you now look at the following compound, please?
Need IC50 of CC(C)Oc1ccc(-c2nc3n(c2-c2ccncc2)CCC3)cc1 , thanks.
2500

====

System: Eicosanoid Production in Human Whole Blood
Experiment: Inhibition of eicosanoid production following calcium ionophore stimulation in human whole blood
Format: cell-based
Details: human blood stimulated with calcium ionophore; 12-HETE; read-out: 5-LO, IC50 (uM) 12-HETE
Below: a set of entries, each annotated with reported IC50.
Answer format: numeric, µM implied, no suffix.

CSc1ccc(-c2nc3n(c2-c2ccncc2)CCC3)cc1: 60

From here, focus on the item given below.
Form field: reported IC50 of C[S+]([O-])c1ccc(-c2nc3n(c2-c2ccncc2)CCC3)cc1 (centres unmarked)
80
